system tested: DN-III quality control recombinant protein (produced by Fapon Biotech InC.) (dengue virus)
assay name: BLI, AMC sensor, antibody captured
kon values for the binders below.
Entry rule: numbers only, all in M⁻¹ s⁻¹.

[[record]]
binder = "Mutation 1-23 (antibody, V domains shown) VH: EVQLQQSGTELVRPGALVKLSCKASGFNIKDYYLHWVKQRPRQGLEWIGWIDPENGKTIYDPKFQDKASITSDTSTNTAYLQLRSLTSEDTAVYYCVTAYFRFVYWGQGTLVTVSA VL: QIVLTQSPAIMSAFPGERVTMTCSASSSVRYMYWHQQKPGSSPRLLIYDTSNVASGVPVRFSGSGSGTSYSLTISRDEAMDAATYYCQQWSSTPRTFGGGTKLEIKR"
quantity_measured = "kon"
recorded_value = 44600


[ask] # lookup: kon of Mutation 1-19 (antibody, V domains shown) VH: EVQLQQSGTELVRPGALVKLSCKASGFNIKDYYIHWVKQRPRQGLEWIGWIDPENGKTIYDPKFQDKASITSDTSTNTAYLQLRSLTSEDTAVYYCVSAYFRFVYWGQGTLVTVSA VL: QIVLTQSPAIMSAFPGERVTMTCSASTSVRYMYWHQQKPGSSPRLLIYDTSNVASGVPVRFSGSGSGTSYSLTISRDEAMDAATYYCQQWSSYPRTFGGGTKLEIKR
[reply] 31400
